molecular target: T1, human CD71 extracellular domain (human, UniProt P02786 89-760); experiment: primary ELISA; also: test concentration or dose not given here
T1 construct: also called hCD71; CD71-ECD
T1 sequence (P02786 89-760): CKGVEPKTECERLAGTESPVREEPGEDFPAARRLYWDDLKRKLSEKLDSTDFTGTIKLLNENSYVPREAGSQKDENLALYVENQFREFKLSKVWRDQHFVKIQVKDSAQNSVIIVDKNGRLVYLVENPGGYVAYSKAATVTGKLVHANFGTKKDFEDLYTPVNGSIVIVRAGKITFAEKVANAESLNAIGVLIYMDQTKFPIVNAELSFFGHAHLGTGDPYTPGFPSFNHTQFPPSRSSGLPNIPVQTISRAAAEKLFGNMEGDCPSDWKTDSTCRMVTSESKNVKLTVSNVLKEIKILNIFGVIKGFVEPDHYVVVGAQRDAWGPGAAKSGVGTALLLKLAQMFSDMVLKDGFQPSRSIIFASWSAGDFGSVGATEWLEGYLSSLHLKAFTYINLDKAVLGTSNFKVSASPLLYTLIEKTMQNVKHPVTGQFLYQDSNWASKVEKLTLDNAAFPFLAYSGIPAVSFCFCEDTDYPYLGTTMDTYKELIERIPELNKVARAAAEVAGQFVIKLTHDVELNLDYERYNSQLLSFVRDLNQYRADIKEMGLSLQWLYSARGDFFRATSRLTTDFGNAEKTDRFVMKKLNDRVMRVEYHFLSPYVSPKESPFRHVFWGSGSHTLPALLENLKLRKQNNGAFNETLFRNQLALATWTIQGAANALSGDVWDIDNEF
reportedMetric: RLU (RLU)

Some binders with known RLU results, for comparison:
- binder: "CD71-binding FN3 domain SEQ ID NO 374 (designed binder) MLPAPKNLVVSRVTEDSARLSWTAPDAAFDSFYIAYAEPRPDGEAIQLSVPGSERSYDLTGLKPGTEYSVLIHGVKGGLLSSPLHASFTT"
  reportedMetric: "RLU"
  observed: "1e+06"
- binder: "CD71-binding FN3 domain SEQ ID NO 445 (designed binder) MLPAPKNLVVSRVTEDSARLSWTAPDAAFDSFFIGYLEPQPPGEAIHLFVPGSERSYDLTGLKPGTEYNVTIQGVKGGFPSDPLVASFTT"
  reportedMetric: "RLU"
  observed: "6.65e+06"

[I] CD71-binding FN3 domain SEQ ID NO 386 (designed binder) MLPAPKNLVVSRVTEDSARLSWTAPDAAFDSFYIAYAEPRPDGEAITLLVPGSERSYDLTGLKPGTEYSVLIHGVKGGLLSSPLSAIFTT
[II] CD71-binding FN3 domain SEQ ID NO 367 (designed binder) MLPAPKNLVVSRVTEDSARLSWTAPDAAFDSFYIAYAEPRPDGEAILLVVPGSERSYDLTGLKPGTEYSVLIHGVKGGLLSSPLVAFFTT
Of I and II , which one carries the higher reported RLU? When you have decided, please share the label of that item. II
